Test system: 786-0
ASSAY TEXT: NCI tumour cell line growth inhibition, 48 h
The source made the active and inactive calls. No stated cut-off is given here; in the data, active = GI50 up to about 1.1 µM and inactive = higher.
PROPERTY MEASURED: GI50

CC1(C)C2CCC3CC(CCC#N)CCC3C21C#N (stereo not given); > 100 µM (inactive)

Please turn your attention to the following entry.
Query: Recorded GI50 for `O=C(O)Cc1nc[nH]c1C(=O)O` , please?
Result: > 100 µM (inactive)

----------
Tested on: U-251
ASSAY TEXT: NCI tumour cell line growth inhibition, 48 h
Calls of active or inactive are those of the source. Cut-off read from the data, not from the text of the source: active = GI50 up to about 1.1 µM and inactive = higher.
Tick one outcome: 1 (yes) = active, 0 (no) = inactive

Before answering, review these 5 worked examples.
FC(F)(F)c1ccccc1N1CCN(c2nc(-c3cccs3)nc3ccc(Br)cc23)CC1; 0 (no)
OC1=CN=C(C2CC2)Oc2ccccc21; 0 (no)
O=C(Nc1cc(Cl)c(I)c(Cl)c1)C(F)(F)F; 0 (no)
O=C1/C(=C/c2ccc([N+](=O)[O-])cc2)CNC/C1=C\c1ccc([N+](=O)[O-])cc1; 1 (yes)
O=C1OC2CCCC[C@@H]2C2C[C@]34CCCCC3[C@@H](C(=O)O4)C12 (stereo partly specified); 0 (no)

Query: Hi, do you know how `CCCCCCCCCCCCn1c(=O)cc(NCCCC)c2cc3c(NCCCC)cc(=O)n(CCCCCCCCCCCC)c3nc21` came out in this test?
Result: 0 (no)

Query: # lookup: test call for CC(=O)OC1COC(n2nc(N)nc2C)C(OC(C)=O)C1OC(C)=O (stereo unspecified)
Result: 0 (no)

Query: Outcome? O=c1oc2ccccc2c(O)c1C(C/C(CCN1CCCC1)=N/O)c1ccccc1 (stereo unspecified)
Result: 0 (no)

Query: Dear colleague, could you share the recorded outcome for `COc1ccc2c(c1)/C(=C(\C(Cl)=C(Cl)Cl)[N+](=O)[O-])N2` when you have a moment?
Result: 0 (no)

Query: Hi team, can someone confirm the assay call for `O=CC(I)=C(c1ccccc1)c1ccccc1` ?
Result: 0 (no)

Query: Would you mind telling me which call this test gave `CC(C)(C)O/N=C/c1cc(NC(=S)c2ccccc2)ccc1Cl` ?
Result: 0 (no)

Query: Returns: the outcome recorded for `CS/C(=N\S(=O)(=O)c1ccc(Cl)cc1)NCCCCN/C(=N/S(=O)(=O)c1ccc(Cl)cc1)SC` in this assay.
Result: 0 (no)

Query: // return assay outcome for N#CC1=C(S)N(C2OC(CO)C(O)C(O)C2O)C(c2ccccc2)=CC1c1ccccc1 (stereo unspecified)
Result: 0 (no)

Query: For this molecule, state the assay outcome: c1ccc(C2CC(c3ccc4ccccc4c3)=Nc3ccccc3S2)cc1 (stereo unspecified)
Result: 0 (no)

----------
Tested on: SR
ASSAY TEXT: NCI tumour cell line growth inhibition, 48 h
Activity calls are given as the source filed them. Rule as the data show it: active = GI50 up to about 1.1 µM and inactive = higher.
Return exactly one item of active, inactive

Consider the following illustrative entries.
COC(=O)C1C2C=CC(C2)N1[C@@H](C)c1ccccc1 (some centres not stated); inactive
CCCC(=O)c1ccc(=O)n(C)c1; inactive
CC#Cc1ccc(-c2ccccc2)s1; inactive
CCOC(=O)N1CC2(C)C=CC1C(C(=O)OC)C2 (configuration not stated); inactive
CC(=O)C1=C(O)C(N)C2Cc3c(c(O)c4c(O)c(C)ccc4c3C)C(=O)C2(O)C1=O (configuration not stated); inactive

Query: Check the results log: what was the call for `CCCC(=O)NC(Nc1ccc(S(=O)(=O)Nc2ccc(OC)nn2)cc1)(C(F)(F)F)C(F)(F)F` ?
Result: inactive

Query: Can you look up the reported call for CCC1([N+](=O)[O-])CC2C=CC1C2 (configuration not stated) for me?
Result: inactive

Query: // outcome(item) with item = `COc1ccc([C@H]2CC(=O)C[C@H](c3ccc(OC)cc3)C23C(=O)c2ccccc2C3=O)cc1`
Result: inactive

Query: Record request — test call for `COc1c2cc(C(C)(C)C)cc1Cc1cccc(c1OCc1cccc([N+](=O)[O-])c1)Cc1cc(C(C)(C)C)cc(c1OC)Cc1cccc(c1OCc1cccc([N+](=O)[O-])c1)Cc1cc(C(C)(C)C)cc(c1OC)Cc1cccc(c1OCc1cccc([N+](=O)[O-])c1)C2`
Result: inactive

Query: Each compound tested received a call. Report the one for `CCOC(=O)c1c(Br)c(-c2ccc(OC)cc2)c(Br)n1C` .
Result: inactive

Query: So what was the verdict on COc1cccc(C2c3cc4c(cc3OC(NNC(N)=O)C2C)OCO4)c1OC (configuration not stated) in this test?
Result: active

Query: Please share the test call associated with `O=C(O)c1ccc(Nc2nc3cc(C(F)(F)F)ccc3n3cccc23)cc1` .
Result: inactive

Query: Test call for this compound, please: `CC(=O)O/C(C)=C\C(=O)O/N=C(\N)c1ccc(C)cc1`
Result: inactive

Query: Could you kindly confirm the outcome this assay logged for `O=C1Nc2cc([N+](=O)[O-])ccc2C(=O)N2CCC[C@@H]12` ?
Result: inactive

Query: Name the outcome recorded for C[C@@H](Oc1ccc(Oc2cnc3ccc(Cl)cc3n2)cc1)C(=O)O [R(+)XK469] in the assay.
Result: inactive

Query: # fetch the recorded call for `CCO[C@@H]1OC(=O)[C@@](C)(C(C)=O)[C@@H]1C` here
Result: inactive

Query: Recorded test call requested for `C[N+]1(C)C/C(=C\c2ccccc2)C(=O)/C(=C/c2ccccc2)C1`
Result: inactive

Query: Short answer needed: outcome of this test for Cc1ccc(NC(=O)CC2Sc3ccccc3NC2=O)cc1C (configuration not stated) ?
Result: inactive

Query: Check the results log: what was the call for `CCCS(=O)(=O)/C(=C(\c1ccc(Br)cc1)S(=O)(=O)CCC)c1ccc(Br)cc1` ?
Result: inactive

Query: What did the test return for `Cc1nc(N)nc(N)c1CCCc1ccccc1` ?
Result: inactive

Query: Can you look up the reported call for Cc1ccc(S(=O)(=O)OC2CSSCC2OS(=O)(=O)c2ccc(C)cc2)cc1 (configuration not stated) for me?
Result: inactive

Query: What did this assay record as the result for N#CC1=C(S)N(C2OC(CO)C(O)C(O)C2O)C(c2ccccc2)=CC1c1ccccc1 (configuration not stated) ?
Result: inactive

Query: Check the results log: what was the call for `CN(C(=O)C1=CCC2(CC1)OCCO2)c1ccccc1I` ?
Result: inactive
